system: Plasmodium falciparum; test: GSK_TCMDC: Inhibition of Plasmodium falciparum Dd2 in whole red blood cells, using parasite LDH activity as an index of growth. Test compounds present at 2uM; type: functional
measure: Inhibition

Br.CC(C)c1ccc(OCCCON2C(=N)N=C(N)NC2(C)C)cc1 ... 97%
NS(=O)(=O)c1cccc(N/C=C2\C(=O)Nc3ccc(S(=O)(=O)Cc4c(Cl)cccc4Cl)cc32)c1 ... 99%
CCOc1cc(CC)ccc1C1CCN(CCN2CCC(NC(=O)c3ccc(-c4ccc(C#N)cc4)cc3)CC2)CC1 ... 71%
CC(Cc1ccc(CNC(=O)c2ccc(CC(C)NCCc3cccc(Cl)c3)cc2)cc1)NCCc1cccc(Cl)c1 (stereo not drawn) ... 66%
CCN1CCCC(Nc2ccnc3cc4ccccc4cc23)C1 (stereo not drawn) ... 100%
Cc1cc(C(=O)CN2C(=O)NC3(CCOc4ccccc43)C2=O)c(C)n1Cc1ccco1 (stereo not drawn) ... 42%
CC(C)NCc1cc(Nc2ccnc3cc(Cl)ccc23)ccc1O.Cl ... 100%
Oc1cccc(Nc2nc(NCc3ccccc3)c3ccccc3n2)c1 ... 99%
CCC(CO)NCC(O)Cn1c2ccc(Cl)cc2c2cc(Cl)ccc21 (stereo not drawn) ... 88%
COc1ccc(CNC2Cc3ccccc3C2)cc1-c1ccc(S(=O)(=O)NCCN2CCCC2)c(F)c1.O=C(O)C(F)(F)F ... 69%

For every listed record, write down its Inhibition.
1. COc1cccc2cc(C(=O)N[C@@H](CC(C)C)C(=O)N[C@H](/C=N/NC(=O)c3ccccc3)Cc3c[nH]cn3)oc12
2. CCCCCCNC(=O)C1Cc2c([nH]c3ccc(C)cc23)C2(CCN(CCc3ccccc3)CC2)N1 (stereo not drawn)
3. NC(=O)C1CCN(Cc2ccc(-c3ccc(-c4nc5cc(C(F)(F)F)ccc5[nH]4)cc3)cc2)CC1.O=C(O)C(F)(F)F
4. O=C(Nc1ccc(I)cc1)N1CCc2sccc2C1CN1CCCCC1 (stereo not drawn)

Return:
90%
24%
90%
0%

###

tested on: Plasmodium falciparum; experiment: GSK_TCMDC: Inhibition of Plasmodium falciparum 3D7 in whole red blood cells, using parasite LDH activity as an index of growth. Test compounds present at 2uM; format: functional
Give Inhibition for every item shown.
One number for each entry, in %.

Please review the following examples before continuing.
Cc1ccccc1C1CCN(C2CCC(NC(=O)/C=C/c3cccc(F)c3F)CC2)CC1 (stereo unspecified) ... 89
CCCc1cc(Cc2cnc(N)nc2N)cc(OCCCCCC(=O)O)c1OC.Cl ... 95
Nc1nc(N)c2c(ccc3c2ccn3Cc2cccc3ccccc23)n1 ... 99
Cc1nc(NC2=NCN(CCCN3CCOCC3)CN2)nc2c(C)cccc12 ... 89
Cc1nc(N)nc(N)c1OCc1cccc2ccccc12.Cl ... 96

Alright, here's another compound for you.
Enquiry: Report Inhibition for CCNc1cc(C(=O)N[C@@H](Cc2ccccc2)[C@H](O)CNC2CCC(C(C)(C)C)CC2)cc(N2CCCC2=O)c1 (stereo partly specified)
Return: 98

###

Give Inhibition for every item shown.
tested on: Plasmodium falciparum; assay: GSK_TCMDC: Inhibition of Plasmodium falciparum 3D7 in whole red blood cells, using parasite LDH activity as an index of growth. Test compounds present at 2uM; format: functional
Answers are plain numbers, in %.

Cl.O=C(NCCCCN1CCC(O)(c2ccc3c(c2)OCO3)CC1)c1ccc(NC(=O)c2ccc(Cl)cc2)cc1 ... 86

For every listed record, write down its Inhibition.
1. COc1ccc(Cl)cc1NC(=O)C(C)N1CCN(S(=O)(=O)c2ccccc2F)CC1 (stereo not given)
2. CN(C)CCCOc1ccc(CNCC(C)(C)c2nc(-c3ccc(Cl)c(O)c3)c(-c3ccncc3)[nH]2)cc1.Cl

Return:
1. 93
2. 100

For every listed record, write down its Inhibition.
1. CN(C)Cc1ccc(-c2cc3ncnc(Nc4ccc(OCc5cccc(F)c5)c(Cl)c4)c3s2)[nH]1
2. O=C(/C=C/c1c[nH]c2ccccc12)NCCCCCN1CCC(c2c[nH]c3ccccc23)CC1
3. Fc1ccc(OC2CN(c3nccc(NCc4ccccc4Cl)n3)C2)cc1
4. O=C(NCc1ccccc1[S+]([O-])c1ccccc1CO)C(F)(F)F (stereo not given)

Return:
99
96
98
98

For every listed record, write down its Inhibition.
1. CCCCC#Cc1cnc2nc(N)[nH]c(=O)c2n1
2. O=C(Nc1ccccc1Cl)c1cc2ccccc2cc1O

Return:
89
94

Enquiry: Report Inhibition for `Cc1cccc(-c2nn(-c3ccccc3)cc2C(=O)Nc2nnc(C)o2)c1`
Return: 84

###

test system: Plasmodium falciparum; assay: GSK_TCMDC: Inhibition of Plasmodium falciparum Dd2 in whole red blood cells, using parasite LDH activity as an index of growth. Test compounds present at 2uM; assay type: functional
Cut-off 50% on Inhibition, inclusive. At or above means label 1; below means label 0.

Fc1cccc(COc2ccc(Nc3ncnc4sc(C#CC5CCCCN5)cc34)cc2Cl)c1.O=C(O)C(F)(F)F (stereo not given) ... label 1
O=C1CC(C(=O)O)CC(=O)N1 ... label 1

Enquiry: Inhibition >= 50% for `O=C(Nc1cccc(CN2CCN(C(=O)c3cccc(Cl)c3)CC2)c1)c1cccs1.O=C(O)C(F)(F)F` ?
Return: label 1

Enquiry: Inhibition >= 50% for `COc1cc(Cc2cnc(N)nc2N)cc(OCCCCc2nnn[nH]2)c1OC` ?
Return: label 0

###

test system: Plasmodium falciparum; assay: GSK_TCMDC: Inhibition of Plasmodium falciparum 3D7 in whole red blood cells, using parasite LDH activity as an index of growth. Test compounds present at 2uM; assay type: functional
Binary label based on Inhibition with cut-off 90%: below gives MET, not below gives NOT MET.

Before answering, review these 5 worked examples.
COc1ccc(NC(=O)Nc2ccc(-c3cccc(-c4nc5ccccc5[nH]4)c3)cc2)cc1 ... NOT MET
Cc1cc(NC(=O)c2sc3ccccc3c2O)no1 ... NOT MET
O=C(O)C(F)(F)F.O=S(=O)(NCCN1CCCC1)c1cccc(-c2ccc(CNCc3ccccc3)cc2)c1 ... NOT MET
CCN(CCC1(c2ccc(Cl)c(Cl)c2)CN(C(=O)c2cc(OC)c(OC)c(OC)c2)CCO1)C1CC2c3ccccc3CC21 (centres undefined) ... MET
COc1ccc(CNC(=O)Nc2cc3cc(-c4ccc(CN(C)C)cc4)ccc3n3c(C)nnc23)cc1 ... NOT MET

Enquiry: Identify whether the compound `O=C(Nc1ccc(S(=O)(=O)N2CCCCC2)cc1)c1cc(-c2cc(Cl)ccc2O)n[nH]1` records Inhibition below 90%.
Return: NOT MET

Enquiry: Identify whether the compound `COc1cc(CN2CCC(CO)(Cc3cccc(C(F)(F)F)c3)CC2)c(Cl)cc1O` records Inhibition below 90%.
Return: NOT MET

Enquiry: Identify whether the compound Cc1ccccc1C1CCN(C2CCC(NC(=O)/C=C/c3ccccc3C(F)(F)F)CC2)CC1 (centres undefined) records Inhibition below 90%.
Return: MET

Enquiry: Identify whether the compound `CC(=NNC(S)=NCc1ccco1)c1ccccn1` records Inhibition below 90%.
Return: NOT MET

Enquiry: Identify whether the compound `Cl.Nc1cccc(C=CC(=O)N=c2cc[nH]c3ccccc23)c1` records Inhibition below 90%.
Return: NOT MET

Enquiry: Identify whether the compound `COc1ccc(-c2ccc(CNC(=O)c3cccc(C#N)c3)c(F)c2)cc1CN1CCCN(C)CC1.O=C(O)C(F)(F)F` records Inhibition below 90%.
Return: NOT MET

Enquiry: Identify whether the compound CC(C)(C)OC(=O)C1CCCN(Cc2ccc(-c3cccc(-c4nc5ccccc5[nH]4)c3)cc2)C1.O=C(O)C(F)(F)F (centres undefined) records Inhibition below 90%.
Return: NOT MET

Enquiry: Identify whether the compound `COc1ccc2[nH]c(C)cc(=NN=Cc3cc(OC)c(OC)cc3OC)c2c1` records Inhibition below 90%.
Return: NOT MET

###

tested on: HepG2; test: GSK_TCMDC: Percent inhibition of human HepG2 cell line. Test compounds present at 10uM.; assay type: functional
measure: Inhibition (%)
Numbers only, in %.

Please review the following examples before continuing.
CN1CCN(CCCCNc2c3ccccc3nc3ccccc23)CC1 ... 37
Cc1cc(N(C)C)nc(Nc2ccc(NC(=O)c3ccccc3C)cc2)n1 ... 0
CN(C)c1ccc(CN2CCC(NC(=O)c3ccc(-c4ccccc4Cl)s3)CC2)cc1.O=C(O)C(F)(F)F ... 35
CCCCNC(=O)c1cc(CNC2CCCCC2)ccc1-c1cccc(CNCc2ccc(-c3ccccc3)cc2)c1.O=C(O)C(F)(F)F ... 100
COC(=O)Nc1ccc(-c2ccc(C(=O)NC3CCN(C[C@H](O)c4ccnc5ccc(OC)cc45)CC3)cc2)c(C)c1 ... 32

For every listed record, write down its Inhibition.
1. Br.CC1(C)NC(N)=NC(=N)N1OCCCc1cccc(C(F)(F)F)c1
2. CCCNC(=O)Nc1cc2cc(-c3ccc(CN4CCCC4)cc3)ccc2n2c(C)nnc12
3. Fc1cccc(COc2ccc(-n3ccc4c(NCCCn5ccnc5)ncnc43)cc2Cl)n1
4. CN(C)CCCN1CCN(C(=O)c2cc3cc(-c4ccccc4)ccc3n2S(=O)(=O)c2ccccc2)CC1
5. O=S(=O)(Nc1cccc(CCN2CCC(N3CCCCC3)CC2)c1)c1ccccc1C(F)(F)F
6. Cc1ccccc1N1CCN(c2ccc(C(=O)NC3CC3)cn2)CC1.O=C(O)C(F)(F)F
7. CCNc1cc(C)nc(Nc2ccc(NC(=O)c3ccccc3Cl)cc2)n1
8. O=C(NCCc1ccc(Cl)c(Cl)c1)C1CCCN(C(=O)c2ccc(O)c(-c3ccc(Cl)c(Cl)c3)c2)C1 (configuration not stated)

Return:
1: 62; 2: 67; 3: 14; 4: 32; 5: 21; 6: 14; 7: 48; 8: 0

For every listed record, write down its Inhibition.
1. O=C(/C=C/c1ccc([N+](=O)[O-])cc1)N1CCC(NS(=O)(=O)c2ccc(F)cc2)CC1
2. CC1CN(c2cc(=O)n(Cc3cccc(NC(=O)Nc4ccc(-c5ccccc5)cc4)c3)cn2)CC(C)N1.O=C(O)C(F)(F)F (configuration not stated)
3. CN1CCN(c2cc(NC(=O)c3ccc(-c4ccc(C#N)cc4)cc3)ccc2Cl)CC1
4. c1ccc(-c2cc(NCc3cccc4ccccc34)c3[nH]ncc3n2)cc1
5. CCN(CC)Cc1cc(Nc2c3ccc(Cl)cc3nc3cccc(OC)c23)ccc1O.Cl
6. Cc1ccc(Cn2ncc(N3CCCNCC3)c(Cl)c2=O)cc1NC(=O)Nc1ccc(-c2ccccc2)cc1
7. CCCCCC1c2[nH]c3ccccc3c2CCN1C(=O)OCc1ccccc1 (configuration not stated)
8. CN(C)CCOc1ccc(N2CCN(CCCCNC(=O)c3ccc(NC(=O)c4ccc(Cl)cc4)cc3)CC2)cc1

Return:
1: 0; 2: 2; 3: 29; 4: 7; 5: 8; 6: 55; 7: 3; 8: 13

For every listed record, write down its Inhibition.
1. O=C(/C=C/c1ccc(Cl)cc1)NCCCCCN1CCC(C(=O)Nc2ccc(Cl)c(Cl)c2)CC1
2. CC(C)CCNC(=N)Nc1ccc(OCCCOc2ccc(NC(=N)NCCC(C)C)cc2)cc1
3. Cl.NC1CCN(Cc2cccc(-c3ccc(-c4nc5cc(C(F)(F)F)ccc5[nH]4)cc3)c2)C1 (configuration not stated)
4. COc1ccc(-c2cnc(N)c(-c3ccc(C(N)=O)cc3)c2)cc1OC

Return:
47
0
21
11

For every listed record, write down its Inhibition.
1. Cc1cccc(C(=O)Nc2ccnc(N3CCC(N(C)Cc4ccc(C#N)cc4)CC3)c2)c1.O=C(O)C(F)(F)F
2. CCC[C@@H]([C@@H](CC1CCCCC1)C(=O)N[C@H](C(=O)Nc1nccs1)[C@H](C)O)N(O)C=O
3. COc1ccc2nc(C)cc(Nc3ccc(Oc4ccc(Br)c5ccccc45)c(Cl)c3)c2c1
4. O=C(Nc1ccc(Cl)c(C(F)(F)F)c1)c1ccc(Cl)c([N+](=O)[O-])c1
5. CCOC(=O)c1nc(-c2ccccc2)[nH]c1NC(=S)NC1CCCCC1
6. FC(F)(F)c1ccc2nccc(NCc3ccccc3)c2c1

Return:
[12, 0, 100, 20, 6, 18]

For every listed record, write down its Inhibition.
1. CC(O)CNc1nc2ccccc2n1CC(=O)Nc1cccc(C(=O)Nc2cccc(C(F)(F)F)c2)c1 (configuration not stated)
2. CCN(CC)/C(=N\CCCCCC/N=C(\NC(=N)c1ccc(Cl)cc1)N(CC)CC)NC(=N)c1ccc(Cl)cc1
3. CC(C)CNCc1cccc(-c2cccc(CN(CCN(C)C)C(=O)NCCc3ccccc3)c2)c1.O=C(O)C(F)(F)F
4. CC(=O)N(C)C1CCN(Cc2cccc(-c3ccc(-c4nc5cc(F)ccc5[nH]4)cc3)c2)C1.O=C(O)C(F)(F)F (configuration not stated)
5. CC(C)NCc1cccc(-c2cccc(-c3nc4ccccc4[nH]3)c2)c1.O=C(O)C(F)(F)F
6. Cn1cnnc1Sc1ccc(CN2CCOc3ccc(C4=CCCCC4)cc3C2)o1

Return:
1: 2; 2: 1; 3: 84; 4: 24; 5: 11; 6: 1
